TGI for assorted molecules
System: SR leukemia
Experiment: NCI tumour cell line growth inhibition, 48 h
Please respond with the number in µM and leave the unit unwritten.

Known results for molecules:
# molecule, TGI / µM
measured = [
    ("COc1cc(/C=C2\\N=C(c3ccccc3)N(c3ccc(C(=O)c4ccccc4)cc3N3C(=O)/C(=C/c4ccc(O)c(OC)c4)N=C3c3ccccc3)C2=O)ccc1O", 33.9),
    ("COc1cccc(-c2cc(=O)c3cc(N4CCOCC4)ccc3[nH]2)c1", 0.741),
    ("CCOC(=O)C1=C(C)NC2=C(C(=O)N(c3ccccc3)C2c2ccccc2)C1c1ccccc1 (stereo not drawn)", 45.5),
]

// "CC(=O)CC/C=C(\C)[C@H](O)[C@H](C)C(=O)O[C@H]1C[C@H](C)C=C2C=C[C@@]3(C)O[C@@H](O)CC(=O)[C@]3(C)[C@H]21" : TGI value = 12

The recorded TGI for entry "COc1ccc2nc3c([N+](=O)[O-])ccc4c3c(c2c1)NCCN4CCN(C)C" equals 7.24

----------
Test system: UACC-257 melanoma
Assay: NCI tumour cell line growth inhibition, 48 h
measured.quantity: GI50

// known answers, use as guide
# compound, measured.quantity, reported.measurement
data = [
    ("COCCOC1=CC(=O)c2c(O)ccc(O)c2C1=O", "GI50", "626 nM"),
    ("COc1ccc(CCN(CC(=O)N(CC(N)=O)C2CCC[C@@H]2OCc2ccccc2)C(=O)CN(C(=O)CN(CCc2ccc(Cl)cc2)C(=O)CN(C(=O)CN(C)Cc2ccccc2F)[C@H](C)C2CCCCC2)[C@H](C)C2CCCCC2)cc1OC (stereo partly drawn)", "GI50", "1090 nM"),
    ("CC1(C)N=C(N)N=C(N)N1c1ccc(Cl)cc1", "GI50", "75000 nM"),
    ("O=C1CC(c2ccccc2)Cc2nc3ccc(Br)cc3cc21 (stereo not drawn)", "GI50", "23600 nM"),
    ("Clc1cc(Cl)c(OCCCCCCN2CCNCC2)c(Cl)c1", "GI50", "2770 nM"),
    ("CC(C)(c1ccccc1)c1cc(O)c(C(C)(C)c2ccccc2)cc1O", "GI50", "2100 nM"),
    ("CC(C)(C)CC(C)(C)c1ccc(O)c(Cc2ccc(Cl)cc2Cl)c1", "GI50", "1510 nM"),
    ("CC(C)(C)c1cc(/C=N/NC(=O)c2ccccc2NC(=O)c2cccs2)c(O)c(C(C)(C)C)c1", "GI50", "6180 nM"),
]

Just so you know, measured GI50 for "N#Cc1c(NC(=O)c2ccc(F)cc2)sc2c1CCCC2" came out at > 25000 nM

----------
Measured TGI values are reported for all entries that follow.
Tested on: HCT-15 colon
Assay: NCI tumour cell line growth inhibition, 48 h

# compound, TGI
rows = [
    ("C=C1C(=O)O[C@H]2[C@H](OC(C)=O)[C@@H](C)CCCC3(C)OC3CCC3(CO3)[C@H](O)C[C@@H]12 (some centres undefined)", "21.8 µM"),
]

Lab note: "CC1=C(C)C(=O)O[C@@H]([C@](C)(O)[C@]2(O)CC[C@@]3(O)[C@@H]4C[C@H](O)[C@]5(O)[C@@H](O)C=CC(=O)[C@]5(C)[C@H]4CC[C@]23C)C1" gave TGI of > 100 µM

Recorded TGI (compound "OC[C@H]1NC[C@@H](O)[C@@H](O)[C@H]1O" ): > 100 µM

The reported value for "O=C(NNC1=NCCCN1)c1ccco1" in terms of TGI is > 100 µM

----------
Test system: SNB-19 CNS
Experiment: NCI tumour cell line growth inhibition, 48 h
measured.quantity: TGI

# molecule, measured.quantity, reported.measurement
data = [
    ("Cn1c2c(c3ccccc31)CCN(CCCCN1CCN(c3ccccc3)CC1)C2=O", "TGI", "> 100 µM"),
    ("CC(=O)c1cc2c(s1)C(=O)c1sccc1C2=O", "TGI", "0.202 µM"),
    ("O=C(O)c1ccc(C(O)(c2ccccc2)c2ccccc2)cc1", "TGI", "> 100 µM"),
    ("CC(C)(C)c1ccc2c(c1)C#Cc1cc(C(C)(C)C)ccc1OCCCO2", "TGI", "> 100 µM"),
]

Documented TGI of Cc1ccc(OCC2OC(n3cnc4nc(Nc5ccc(Cl)c(Cl)c5)nc(Cl)c43)CC2Oc2ccc(C)cc2)cc1 (stereo not given) : > 100 µM

----------
Test system: SK-MEL-5 melanoma
Assay: NCI tumour cell line growth inhibition, 48 h
Listed here: items and their measured TGI.

Worked examples follow.
# compound, reported.measurement
rows = [
    ("C#CC(=O)Nc1cccc2c1cc(C)n2-c1nc2c(c(NCc3ccccc3)n1)CCCC2", "0.259 µM"),
    ("N/N=C(\\c1nc2ccc([N+](=O)[O-])cc2[nH]c1=O)C(O)c1ccc(Cl)c(Cl)c1 (centres undefined)", "> 100 µM"),
    ("O=C(Cc1ccccc1)NN1C(=O)/C(=C\\c2cccc([N+](=O)[O-])c2)SC1=Nc1ccccc1", "> 100 µM"),
    ("C=C1C(=O)O[C@H]2[C@H](OC(C)=O)[C@@H](C)CCCC3(C)OC3CCC3(CO3)[C@H](O)C[C@@H]12 (some centres undefined)", "24.9 µM"),
    ("CC[C@@]1(O)C(=O)OCc2c1cc1n(c2=O)Cc2cc3ccccc3nc2-1", "0.181 µM"),
    ("COc1cc([N+](=O)[O-])c(OC)cc1-c1nc2sc(C)cn2c1/C(N)=N/C(=N)N", "> 100 µM"),
]

Reported TGI (SK-MEL-5 melanoma) for entry "CC(=O)NCCCCN(CCCNC(C)=O)C(=O)CNS(=O)(=O)c1cccc2c(N(C)C)cccc12" is > 100 µM

Tested on SK-MEL-5 melanoma: "Oc1[nH]c(=S)[nH]c1/C=C1/C(c2ccccc2)=Nc2ccccc21" . Observed TGI: 25.8 µM

Case "O=C1C=CC(=C(c2ccccc2)c2ccc(O)cc2)C=C1" , SK-MEL-5 melanoma, TGI recorded as 26.4 µM

----------
Test system: CAKI-1 renal
Assay: NCI tumour cell line growth inhibition, 48 h
Listing: TGI of selected compounds

Example entries and their recorded answers appear below.
# compound, reported.measurement
rows = [
    ("O=S1(=O)c2ccccc2C(Nc2ccccc2)N1c1ccccc1 (centres undefined)", "> 100 µM"),
    ("COc1cc2cc(C(=O)N3CC(CCl)c4ccc([N+](=O)[O-])cc43)[nH]c2c(OC)c1OC (centres undefined)", "> 100 µM"),
    ("N#Cc1ccc(-c2nc3c(N)nc(-c4ccccc4)nc3o2)cc1", "> 100 µM"),
]

Please turn your attention to the following entry.
compound "COC(=O)[C@]12CC[C@@H](C)[C@H](C)[C@@H]1C1=CC[C@@H]3[C@@]4(C)C[C@@H](OC(=O)/C=C/c5ccccc5)[C@H](O)[C@@](C)(CO)[C@@H]4[C@H](O)C[C@@]3(C)[C@]1(C)CC2" , TGI observed: 11.9 µM

----------
Tested on: SK-MEL-28 melanoma
Assay: NCI tumour cell line growth inhibition, 48 h
Reported TGI values for the following molecules.
Just the number please, in µM, no unit attached.

Worked set:
# molecule, TGI (µM)
data = [
    ("COc1cc(/C=N/c2nc3cc4sc(/N=C/c5cc(OC)c(OC)c(OC)c5)nc4cc3s2)cc(OC)c1OC", 39.1),
    ("COc1ccc(C2CC(c3ccc(Nc4ccnc5cc(Cl)ccc45)cc3)=NN2C=O)cc1 (stereo unspecified)", 90.9),
]

Turning now to a further molecule:
Lookup result for "CN(C)CCNC(=O)c1cc(Cl)cc2cc3ccccc3nc12" ; measured TGI: 3.76

----------
Tested on: MDA-MB-231 breast
Test: NCI tumour cell line growth inhibition, 48 h
measured.quantity: GI50

These recorded examples may help you get a feel for the data.
# compound, GI50
rows = [
    ("COC1=C(C)C(=O)c2c(c(CCCl)c3n2CCC3OC(C)=O)C1=O (stereo not drawn)", "17.5 µM"),
    ("CC1(C)N=C(N)N=C(N)N1c1ccc(Cl)cc1", "> 100 µM"),
    ("O=c1cnnc(N/N=C/c2ccccc2O)[nH]1", "4.37 µM"),
    ("Cn1cc(C2=C(c3cn(-c4ccccc4)c4ccccc34)C(=O)NC2=O)c2ccccc21", "> 23.3 µM"),
    ("CC1(C)N=C(N)N=C(N)N1c1ccc(OCCCNC(=O)Nc2cccc(S(=O)(=O)F)c2)c(Cl)c1", "7.25 µM"),
]

The value of GI50 measured for the compound "C=CC(=O)N1C[C@@H]2CCOc3c(Cl)c(-c4c(O)cccc4F)c(F)c4ncnc(c34)N2C[C@H]1C" turned out to be 11.5 µM

Looking up CCOC(=O)C1=C(C)NC(=O)NC1CN1C(=O)c2ccccc2C1=O (stereo not drawn) , I see its GI50 listed as > 100 µM

In plain terms, "O=C(C=P(c1ccccc1)(c1ccccc1)c1ccccc1)CCl" has a documented GI50 of 1.22 µM
